Taken from the Human Domainome abundance scans (Beltran et al. 2025).

abundance fitness values, listed per item
B1: Transitional endoplasmic reticulum ATPase, residues 26 to 106; numbered along this chain, P55072 (parent)
chain: LIVDEAINEDNSVVSLSQPKMDELQLFRGDTVLLKGKKRREAVCIVLSDDTCSDEKIRMNRVVRNNLRVRLGDVISIQPCP

Variants of: B1
EXPERIMENT SUMMARY: abundance fitness (aPCA) (normalised: wild type 0, dead -1); higher = more abundant; growth selection in yeast, the domain comes from the species named
CONDITION DESCRIPTION: Homo sapiens
Write the value as a bare number.

T31A = -0.089

Inquiry: Look up abundance fitness for this variant: L34M
Reply text: -0.073

Inquiry: Look up abundance fitness for this variant: G29M
Reply text: -0.098

Inquiry: Look up abundance fitness for this variant: V32W
Reply text: -0.988

Inquiry: Look up abundance fitness for this variant: E55H
Reply text: -0.041

Inquiry: Look up abundance fitness for this variant: V3P
Reply text: -0.948

Inquiry: Look up abundance fitness for this variant: V43S
Reply text: -0.052

Inquiry: Look up abundance fitness for this variant: V32Q
Reply text: -0.785

Inquiry: Look up abundance fitness for this variant: D54I
Reply text: -0.106

Inquiry: Look up abundance fitness for this variant: S15T
Reply text: 0.004

Inquiry: Look up abundance fitness for this variant: I7G
Reply text: -0.011
